system: NCI-H23; assay: NCI tumour cell line growth inhibition, 48 h
Calls of active or inactive are those of the source. Rule as the data show it: active = GI50 up to about 1.1 µM and inactive = higher.
Returns: one label drawn from active, inactive

Solved cases below.
CCCCCCCC/C=C/CCCCCCCC(=O)N(O)C1CC(n2cc(C)c(=O)[nH]c2=O)OC1CO (centres undefined) | inactive
Cc1c(C(=O)/C=C/c2ccco2)[n+]([O-])c2ccccc2[n+]1[O-] | inactive
CCC1(O)C[C@H]2CN(CCCc3c([nH]c4ccccc34)[C@@](C(=O)OC)(c3cc4c(cc3OC)N(C)C3[C@](O)(C(=O)OC)[C@H](OC(C)=O)[C@]5(CC)C=CCN6CC[C@]43[C@H]65)C2)C1 (some centres undefined) | active
CC(=O)N1C=Cc2c(c(C)c3c([nH]c4ccccc43)c2C)C1 | inactive

Query: Could you please tell me the result logged for CC(C)(C)OC(=O)N1CCCC1C(=O)NC(c1ccccc1)c1ccccc1 (centres undefined) in this assay?
Response: inactive

Query: Could you please tell me the result logged for O=C(O)CNS(=O)(=O)c1ccc(NCc2ccccc2)cc1 in this assay?
Response: inactive

Query: Could you please tell me the result logged for Cc1ccc(/N=N/N(C)C(=O)C(C)N)cc1 (centres undefined) in this assay?
Response: inactive

Query: Could you please tell me the result logged for CC1(C)OCC(C2OC3OC(C)(C)OC3C2c2ccccc2)O1 (centres undefined) in this assay?
Response: inactive

Query: Could you please tell me the result logged for CC[C@H](C)[C@@H]([C@@H](CC(=O)N1CCC[C@H]1[C@H](OC)[C@@H](C)C(=O)NCCc1ccccc1)OC)N(C)C(=O)C(NC(=O)[C@H](C(C)C)N(C)C)C(C)C (some centres undefined) in this assay?
Response: active

* * *

system: HL-60; assay: NCI tumour cell line growth inhibition, 48 h
Activity calls are given as the source filed them. Rule as the data show it: active = GI50 up to about 1.1 µM and inactive = higher.
Returns: one label drawn from yes (active), no (inactive)

Solved cases below.
CCOC(=O)C(=O)Nc1cc(Cl)ccc1Cl | no
Brc1ccc(C2(N3CCCCC3)CCCCC2)s1 | no
CN=[S+]([O-])(c1ccccc1)c1ccccc1 | no
O=C1/C(=C/c2ccc(Cl)cc2)N=C(c2ccccc2)N1/N=C/c1ccccc1O | no
CC(C)c1cccc(C(C)C)c1NC(=O)C(=O)C1CCC2=C(Sc3ccccc3N2)C1=O (centres undefined) | no

Query: Could you please tell me the result logged for O=C1CSC(c2c[nH]c3ccccc23)N1c1ccc(Cl)cc1 (centres undefined) in this assay?
Response: no

Query: Could you please tell me the result logged for C/C(=N/CC(=O)O)c1ccccc1 in this assay?
Response: no

* * *

Please provide measured GI50 for the entries that follow.
tested on: HOP-18; experiment: NCI tumour cell line growth inhibition, 48 h
Active and inactive are the calls of the source. Cut-off read from the data, not from the text of the source: active = GI50 up to about 1.1 µM and inactive = higher.

Study these solved cases before continuing.
CCCCCCCC(=O)OC[C@@H](C[As](=O)(O)O)OC(=O)CCCCCCC | 18.2 µM (inactive)
CCOC(=O)C1(C)CCCCC(=O)N1 (stereo unspecified) | 64.3 µM (inactive)
COCCOCOC(CCCCO)c1cc(C)c(O[Si](C)(C)C(C)(C)C)c(C)c1 (stereo unspecified) | 16.9 µM (inactive)

Give GI50 for each listed item.
1. NC1=NN(c2ccccc2)C(=O)C1C(=O)C(=O)Nc1ccc(Cl)cc1 (stereo unspecified)
2. N#CC1(C#N)C(C#N)(C#N)C12CCCCCC2
3. COc1ccccc1C(O)(c1ccccc1)C(O)(c1ccccc1)c1ccccc1OC (stereo unspecified)
4. Oc1cc(-c2ccccn2)nc2cccc(F)c12
5. CC1=NN(C(=O)Cc2ccccc2)C(=O)/C1=C\c1ccco1
6. CC1C2=CC=C(O2)C(C)(C)C2=CC=C(O2)C(C)(C)C2=CC=C(O2)C(C)(C)C2=CC=C1O2
7. CCCSCC(P(=O)(O)O)P(=O)(O)O.NC1CCCCC1
8. CCC1CN2CCC3(c4ccccc4)CC(C(=O)OC)=CC1C23 (stereo unspecified)

Response:
1. > 100 µM (inactive)
2. 16.4 µM (inactive)
3. > 100 µM (inactive)
4. > 100 µM (inactive)
5. > 100 µM (inactive)
6. > 100 µM (inactive)
7. > 100 µM (inactive)
8. 14.9 µM (inactive)
